# test_name: intramolecular disulfide formation by ambient air oxidation of bis-Cys peptides on SiO2 array surface after side-chain deprotection (TFA/TMS-OTf) and NH3-gas DKP detachment; fraction oxidized from MALDI relative peak intensities
# test_context: the molecule shown is the open-chain precursor; 20-membered ring; none (dry film on SiO2, ambient air); other; 18.0 h; scale: fraction oxidized
measured_metric: ring closure, fraction oxidized by MALDI

compound=COc1cc(OC)c([P+](CC(=O)N[C@@H](CS)C(=O)N[C@H](C(=O)N2CCC[C@H]2C(=O)NCC(=O)N[C@@H](Cc2c[nH]cn2)C(=O)N[C@@H](CS)C(=O)NCCCC[C@@H]2NC(=O)[C@@H]3CCCN3C2=O)[C@@H](C)O)(c2c(OC)cc(OC)cc2OC)c2c(OC)cc(OC)cc2OC)c(OC)c1 measured_metric="ring closure, fraction oxidized by MALDI" observed_measurement=0.79
compound=COc1cc(OC)c([P+](CC(=O)N[C@@H](CCCCN)C(=O)N[C@@H](CS)C(=O)N[C@H](C(=O)N2CCC[C@H]2C(=O)NCC(=O)N[C@@H](Cc2c[nH]cn2)C(=O)N[C@@H](CS)C(=O)N[C@@H](CC(C)C)C(=O)NCCCC[C@@H]2NC(=O)[C@@H]3CCCN3C2=O)[C@@H](C)O)(c2c(OC)cc(OC)cc2OC)c2c(OC)cc(OC)cc2OC)c(OC)c1 measured_metric="ring closure, fraction oxidized by MALDI" observed_measurement=0.63
compound=COc1cc(OC)c([P+](CC(=O)N[C@@H](CS)C(=O)N[C@H](C(=O)N[C@@H](CCC(N)=O)C(=O)N[C@@H](Cc2c[nH]cn2)C(=O)N[C@@H](Cc2ccc(O)cc2)C(=O)N[C@@H](CS)C(=O)NCCCC[C@@H]2NC(=O)[C@@H]3CCCN3C2=O)[C@@H](C)O)(c2c(OC)cc(OC)cc2OC)c2c(OC)cc(OC)cc2OC)c(OC)c1 measured_metric="ring closure, fraction oxidized by MALDI" observed_measurement=0.75
compound=COc1cc(OC)c([P+](CC(=O)N[C@@H](CS)C(=O)N[C@@H](CCC(N)=O)C(=O)N2CCC[C@H]2C(=O)NCC(=O)N[C@@H](Cc2ccc(O)cc2)C(=O)N[C@@H](CS)C(=O)NCCCC[C@@H]2NC(=O)[C@@H]3CCCN3C2=O)(c2c(OC)cc(OC)cc2OC)c2c(OC)cc(OC)cc2OC)c(OC)c1 measured_metric="ring closure, fraction oxidized by MALDI" observed_measurement=0.75

----------
# test_name: intramolecular disulfide formation by ambient air oxidation of bis-Cys peptides on SiO2 array surface after side-chain deprotection (TFA/TMS-OTf) and NH3-gas DKP detachment; fraction oxidized from MALDI relative peak intensities
# test_context: the molecule shown is the open-chain precursor; 14-membered ring; none (dry film on SiO2, ambient air); other; 18.0 h; scale: fraction oxidized
measured_metric: ring closure, fraction oxidized by MALDI

compound=COc1cc(OC)c([P+](CC(=O)N[C@@H](CS)C(=O)N[C@@H](CCC(N)=O)C(=O)N[C@@H](Cc2ccc(O)cc2)C(=O)N[C@@H](CS)C(=O)NCCCC[C@@H]2NC(=O)[C@@H]3CCCN3C2=O)(c2c(OC)cc(OC)cc2OC)c2c(OC)cc(OC)cc2OC)c(OC)c1 observed_measurement=0.72
compound=COc1cc(OC)c([P+](CC(=O)N[C@@H](CS)C(=O)N[C@H](C(=O)N[C@@H](Cc2c[nH]cn2)C(=O)N[C@@H](CS)C(=O)NCCCC[C@@H]2NC(=O)[C@@H]3CCCN3C2=O)[C@@H](C)O)(c2c(OC)cc(OC)cc2OC)c2c(OC)cc(OC)cc2OC)c(OC)c1 observed_measurement=0.78
compound=COc1cc(OC)c([P+](CC(=O)N[C@@H](CS)C(=O)N2CCC[C@H]2C(=O)NCC(=O)N[C@@H](CS)C(=O)NCCCC[C@@H]2NC(=O)[C@@H]3CCCN3C2=O)(c2c(OC)cc(OC)cc2OC)c2c(OC)cc(OC)cc2OC)c(OC)c1 observed_measurement=0.77
compound=COc1cc(OC)c([P+](CC(=O)N[C@@H](CCCCN)C(=O)N[C@@H](CS)C(=O)N2CCC[C@H]2C(=O)NCC(=O)N[C@@H](CS)C(=O)N[C@@H](CC(C)C)C(=O)NCCCC[C@@H]2NC(=O)[C@@H]3CCCN3C2=O)(c2c(OC)cc(OC)cc2OC)c2c(OC)cc(OC)cc2OC)c(OC)c1 observed_measurement=0.73
compound=COc1cc(OC)c([P+](CC(=O)N[C@@H](Cc2ccc(O)cc2)C(=O)N[C@@H](CS)C(=O)N2CCC[C@H]2C(=O)NCC(=O)N[C@@H](CS)C(=O)N[C@@H](CO)C(=O)NCCCC[C@@H]2NC(=O)[C@@H]3CCCN3C2=O)(c2c(OC)cc(OC)cc2OC)c2c(OC)cc(OC)cc2OC)c(OC)c1 observed_measurement=0.76

----------
# system_name: human diaphorase (NQO1) (Homo sapiens, UniProt P15559)
# Construct: purchased SigmaAldrich
# Sequence (P15559 whole entry): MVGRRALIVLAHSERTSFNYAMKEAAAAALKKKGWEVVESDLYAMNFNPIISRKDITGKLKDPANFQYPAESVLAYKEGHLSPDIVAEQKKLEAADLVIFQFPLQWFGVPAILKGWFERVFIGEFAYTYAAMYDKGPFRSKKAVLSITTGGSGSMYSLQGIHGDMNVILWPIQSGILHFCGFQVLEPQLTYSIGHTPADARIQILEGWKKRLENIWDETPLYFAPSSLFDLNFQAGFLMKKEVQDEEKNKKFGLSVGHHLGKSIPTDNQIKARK
# test_name: Alexa Fluor 555-diaphorase binding to linear and lactam constrained peptide microarrays
# test_context: lactam constrained library peptide; 10.0 nM protein applied to the array
Each item that follows carries a reported Diaphorase Lactam, log 10 transformed median intensity.
measured_metric: Diaphorase Lactam, log 10 transformed median intensity

sequence_data="PPYTYANN [library array peptide, tested lactam constrained and linear]" observed_measurement=4.35
sequence_data="QPQSQQSQ [library array peptide, tested lactam constrained and linear]" observed_measurement=4.28
sequence_data="TFSSFAPV [library array peptide, tested lactam constrained and linear]" observed_measurement=4.52
sequence_data="VPSSYNLN [library array peptide, tested lactam constrained and linear]" observed_measurement=4.38

----------
# Tested on: Ferredoxin NADP+ Reductase (FNR)
# test_name: FNR counter screen on linear and lactam constrained peptide microarrays
# Format: binding
# test_context: lactam constrained library peptide; 10.0 nM protein applied to the array
Each item that follows carries a reported FNR Lactam, log 10 transformed median intensity.
measured_metric: FNR Lactam, log 10 transformed median intensity

sequence_data="IGPNPKNN [library array peptide, tested lactam constrained and linear]" observed_measurement=2.54
sequence_data="TTFFQPSY [library array peptide, tested lactam constrained and linear]" observed_measurement=2.55
sequence_data="TFSSFAPV [library array peptide, tested lactam constrained and linear]" observed_measurement=2.56
sequence_data="TFGFNGFP [library array peptide, tested lactam constrained and linear]" observed_measurement=2.59

----------
Each item that follows carries a reported Streptavidin Lactam, log 10 transformed median intensity.
# system_name: Streptavidin (Streptomyces avidinii)
# Sequence (P22629 25-183, species assumed): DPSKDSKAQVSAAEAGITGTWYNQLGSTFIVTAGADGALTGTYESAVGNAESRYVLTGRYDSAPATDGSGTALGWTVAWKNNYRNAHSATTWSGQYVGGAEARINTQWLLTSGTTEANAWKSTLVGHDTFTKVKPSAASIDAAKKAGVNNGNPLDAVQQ
# test_name: Streptavidin-Alexa Fluor 555 alone on linear and lactam constrained peptide microarrays
# Type: binding
# test_context: lactam constrained library peptide
measured_metric: Streptavidin Lactam, log 10 transformed median intensity

substance="VPSSYNLN [library array peptide, tested lactam constrained and linear]" system_name="Streptavidin (Streptomyces avidinii)" observed_measurement=2.57
substance="PTSSYLN [library array peptide, tested lactam constrained and linear]" system_name="Streptavidin (Streptomyces avidinii)" observed_measurement=2.52
substance="PPYPNQYQ [library array peptide, tested lactam constrained and linear]" system_name="Streptavidin (Streptomyces avidinii)" observed_measurement=2.53
substance="IGPNPKNN [library array peptide, tested lactam constrained and linear]" system_name="Streptavidin (Streptomyces avidinii)" observed_measurement=2.52
substance="PNYSSAP [library array peptide, tested lactam constrained and linear]" system_name="Streptavidin (Streptomyces avidinii)" observed_measurement=2.52
substance="TTLFQTPY [library array peptide, tested lactam constrained and linear]" system_name="Streptavidin (Streptomyces avidinii)" observed_measurement=2.53
substance="TISYPLTP [library array peptide, tested lactam constrained and linear]" system_name="Streptavidin (Streptomyces avidinii)" observed_measurement=2.54

----------
# System: Ferredoxin NADP+ Reductase (FNR)
# test_name: FNR counter screen on linear and lactam constrained peptide microarrays
# Type: binding
# test_context: linear library peptide; 10.0 nM protein applied to the array
measured_metric: FNR Linear, log 10 transformed median intensity

substance="TSFFPGYN [library array peptide, tested lactam constrained and linear]" observed_measurement=2.54
substance="PNYSSAP [library array peptide, tested lactam constrained and linear]" observed_measurement=2.54
substance="PGKPNTQ [library array peptide, tested lactam constrained and linear]" observed_measurement=2.7

----------
Each item that follows carries a reported NISC Linear, log 10 transformed median intensity.
# System: Non-Immunoglobulin Serum Components (NISC)
# test_name: NISC counter screen on linear and lactam constrained peptide microarrays
# Assay type: binding, human
# test_context: linear library peptide; 0.001 mg/mL NISC applied to the array
measured_metric: NISC Linear, log 10 transformed median intensity

substance="TFSSFAPV [library array peptide, tested lactam constrained and linear]" system_name="Non-Immunoglobulin Serum Components (NISC)" observed_measurement=2.65
substance="VPSSYNLN [library array peptide, tested lactam constrained and linear]" system_name="Non-Immunoglobulin Serum Components (NISC)" observed_measurement=2.65
substance="TTFFQPSY [library array peptide, tested lactam constrained and linear]" system_name="Non-Immunoglobulin Serum Components (NISC)" observed_measurement=2.59
substance="IGPNPKNN [library array peptide, tested lactam constrained and linear]" system_name="Non-Immunoglobulin Serum Components (NISC)" observed_measurement=2.78
substance="PYSNVFQG [library array peptide, tested lactam constrained and linear]" system_name="Non-Immunoglobulin Serum Components (NISC)" observed_measurement=2.66
substance="TYPIYGPA [library array peptide, tested lactam constrained and linear]" system_name="Non-Immunoglobulin Serum Components (NISC)" observed_measurement=2.59
substance="TSFFPGYN [library array peptide, tested lactam constrained and linear]" system_name="Non-Immunoglobulin Serum Components (NISC)" observed_measurement=2.60
substance="TTLFQTPY [library array peptide, tested lactam constrained and linear]" system_name="Non-Immunoglobulin Serum Components (NISC)" observed_measurement=2.69
substance="PPYPNQYQ [library array peptide, tested lactam constrained and linear]" system_name="Non-Immunoglobulin Serum Components (NISC)" observed_measurement=2.69
substance="PTSSYLN [library array peptide, tested lactam constrained and linear]" system_name="Non-Immunoglobulin Serum Components (NISC)" observed_measurement=2.61
